- TARGET ENTITY: CD3 epsilon (Jurkat T cells) (Homo sapiens, UniProt P07766 P07766:23-207)
- Sequence (P07766 23-207, one chain of several): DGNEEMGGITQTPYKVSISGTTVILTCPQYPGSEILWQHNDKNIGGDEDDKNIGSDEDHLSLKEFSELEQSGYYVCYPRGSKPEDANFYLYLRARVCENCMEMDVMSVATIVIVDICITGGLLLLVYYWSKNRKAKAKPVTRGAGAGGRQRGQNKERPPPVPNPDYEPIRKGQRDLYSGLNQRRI
- METHOD: flow; binding to Jurkat cells, 1 h 37 C, PBS 1 mM MgCl2, BSA, tRNA
- SETTINGS: tags: native on Jurkat cells ATCC TIB-152; label: Cy5-CpG' complementary strand
- Protocol: 5 x10⁴ Jurkat cells were washed and re-suspended in x1 folding buffer that contain 0.1% BSA and 0.01% tRNA. 0.1-80 nM of CS6 aptamer were labelled with CpG′-Cy5 tag (1:1 ratio) and folded (95℃ 5 min, ice 10 min, and maintenance at 4℃). […] After incubation, the cells were washed twice with folding buffer X1 and analysed via flow cytometry (CytoFlex). Subsequently CS6 effective concentration 50 (EC₅₀) was evaluated. […]
pEC50: −log10 of the molar value.

BINDER	pEC50
CpG1-CS6 (ssDNA, PS on first five 5' nucleotides of CpG motif) DNA: TCGTCGTCGCGGTTCGCGTCCGTATCGTATAAGGGCTGCTTAGGATTGCGATAATACGGTCAA	7.71
